assay: Plasma pharmacokinetics of Compound 1 in patients with advanced solid tumor malignancies and TGCT; type: in vivo, human; conditions: human, plasma, oral, 30 mg, Cohort 5 30 mg Twice Weekly after 5-day QD loading dose; C1D1; GM (CV %)
measure name: Cmax (ng/mL)
Numbers only, in ng/mL.

Name the recorded Cmax of the item Cc1nc(-c2cnc(NC(C)C)n(C)c2=O)ccc1Oc1ccnc(-c2cnn(C)c2)c1 [Compound 1] in your answer. 422

---

test: Plasma pharmacokinetics of Compound 1 in patients with advanced solid tumor malignancies and TGCT; type: in vivo, human; settings: human, plasma, oral, 20 mg, Cohort 4 20 mg QD x 5 d, BIW maintenance dose; C1D1; Geo Mean; read-out: AUC0-8 h
measure name: AUC(0-t) (ng·h/mL)
Numbers only, in ng·h/mL.

Name the recorded AUC(0-t) of the item `Cc1nc(-c2cnc(NC(C)C)n(C)c2=O)ccc1Oc1ccnc(-c2cnn(C)c2)c1` in your answer. 1610

Data provenance is patent US11679110B2.
